measured.on: HiBit-BRG1 fusion protein (Homo sapiens, UniProt P51532)
Construct: expressed in transfected cells
Sequence (P51532 whole entry, the tested form may be a part): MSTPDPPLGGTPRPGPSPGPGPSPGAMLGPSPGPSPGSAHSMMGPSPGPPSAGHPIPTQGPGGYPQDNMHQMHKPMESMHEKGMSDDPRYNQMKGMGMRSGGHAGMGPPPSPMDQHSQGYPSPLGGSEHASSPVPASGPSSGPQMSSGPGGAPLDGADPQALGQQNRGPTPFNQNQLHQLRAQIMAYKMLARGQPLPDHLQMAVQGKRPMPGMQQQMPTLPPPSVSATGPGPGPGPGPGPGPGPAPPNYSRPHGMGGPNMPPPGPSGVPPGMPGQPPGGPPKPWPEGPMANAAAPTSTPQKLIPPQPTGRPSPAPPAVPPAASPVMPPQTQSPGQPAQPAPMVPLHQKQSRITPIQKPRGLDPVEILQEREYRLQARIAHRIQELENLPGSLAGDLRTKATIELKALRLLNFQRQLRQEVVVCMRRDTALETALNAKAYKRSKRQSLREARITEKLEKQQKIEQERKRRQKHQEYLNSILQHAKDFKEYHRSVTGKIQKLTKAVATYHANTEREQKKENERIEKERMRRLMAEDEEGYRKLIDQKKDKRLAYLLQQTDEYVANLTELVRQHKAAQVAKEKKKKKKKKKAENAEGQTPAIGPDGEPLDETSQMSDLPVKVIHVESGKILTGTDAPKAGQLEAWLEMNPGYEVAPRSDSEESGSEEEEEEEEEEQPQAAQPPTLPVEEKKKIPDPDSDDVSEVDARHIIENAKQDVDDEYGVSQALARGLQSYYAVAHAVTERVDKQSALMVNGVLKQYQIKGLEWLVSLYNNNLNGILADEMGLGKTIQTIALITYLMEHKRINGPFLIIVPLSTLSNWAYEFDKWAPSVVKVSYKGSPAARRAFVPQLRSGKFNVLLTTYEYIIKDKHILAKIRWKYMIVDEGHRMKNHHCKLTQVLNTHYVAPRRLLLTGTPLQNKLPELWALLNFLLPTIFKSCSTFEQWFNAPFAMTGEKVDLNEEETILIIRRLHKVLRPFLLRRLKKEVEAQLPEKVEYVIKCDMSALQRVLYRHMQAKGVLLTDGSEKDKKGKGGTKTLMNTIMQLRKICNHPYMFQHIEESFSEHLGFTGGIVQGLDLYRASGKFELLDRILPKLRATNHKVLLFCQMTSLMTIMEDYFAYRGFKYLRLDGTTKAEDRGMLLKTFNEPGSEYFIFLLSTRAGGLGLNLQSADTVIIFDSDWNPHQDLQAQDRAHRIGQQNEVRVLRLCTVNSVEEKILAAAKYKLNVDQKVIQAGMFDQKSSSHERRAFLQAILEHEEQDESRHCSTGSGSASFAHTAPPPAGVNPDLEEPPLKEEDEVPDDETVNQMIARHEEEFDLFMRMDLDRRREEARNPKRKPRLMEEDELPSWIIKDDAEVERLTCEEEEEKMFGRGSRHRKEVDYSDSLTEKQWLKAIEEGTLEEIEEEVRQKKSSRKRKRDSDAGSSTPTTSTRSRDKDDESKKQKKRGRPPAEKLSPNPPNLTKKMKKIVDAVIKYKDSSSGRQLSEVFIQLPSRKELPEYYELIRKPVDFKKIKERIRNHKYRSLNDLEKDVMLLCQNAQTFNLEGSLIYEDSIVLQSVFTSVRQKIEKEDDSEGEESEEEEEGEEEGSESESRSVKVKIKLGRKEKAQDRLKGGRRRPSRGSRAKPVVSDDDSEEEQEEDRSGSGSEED
assay.text: HiBiT-BRG1 cell-based degradation assay (Nano-Glo HiBiT Lytic Detection, 24 h)
measurement.parameters: stable HeLa cell line expressing HiBit-BRG1 and LgBit, read-out: BRMG1 HiBit Degradation IC50
Protocol: Procedure: A stable HeLa cell line expressing HiBiT-BRM was generated. On day 0, 5000 cells were seeded in 40 μL of media into each well of 384-well cell culture plates. […] The plates were shaken for 10 minutes at room temperature and the bioluminescence read using an EnVision plate reader (PerkinElmer). […] The degradation % was calculated using the following formula: % degradation=100%-100%×(LumSample−LumLC)/(LumHC−LumLC). […]

{"compound": "Cc1ncsc1-c1ccc([C@H](C)NC(=O)[C@@H]2C[C@@H](O)CN2C(=O)[C@@H](c2cc(N3CCN(c4ncc(-c5sc6nnc(-c7ccccc7O)cc6c5C)cn4)CC3)no2)C(C)C)cc1 (single isomer, unassigned) [Compound 31]", "DC50": "> 1 µM"}
{"compound": "Cc1ncsc1-c1ccc([C@H](C)NC(=O)[C@@H]2C[C@@H](O)CN2C(=O)[C@@H](c2cc(N3CCC(c4cnc(N5CCC(c6sc7nnc(-c8ccccc8O)cc7c6C)CC5)nc4)CC3)no2)C(C)C)cc1 (single isomer, unassigned) [Compound 60]", "DC50": "> 0.01 µM"}
{"compound": "Cc1ncsc1-c1ccc([C@H](C)NC(=O)[C@@H]2C[C@@H](O)CN2C(=O)[C@@H](c2cc(N3CC4(CC(c5cc6nnc(-c7ccccc7O)cc6s5)C4)C3)no2)C(C)C)cc1 [Compound 69]", "DC50": "< 0.01 µM"}
{"compound": "Cc1ncsc1-c1ccc([C@H](C)NC(=O)[C@@H]2C[C@@H](O)CN2C(=O)[C@@H](c2cc(N3CCC4(CC3)CC(c3cc5cc(-c6ccccc6O)nnc5s3)C4)no2)C(C)C)cc1 [Compound 98]", "DC50": "> 0.1 µM"}

====

Parameter DC50: see the listing below.
measured.on: HiBit-BRM fusion protein (Homo sapiens, UniProt P51531)
Construct: expressed in transfected cells
Sequence (P51531 whole entry, the tested form may be a part): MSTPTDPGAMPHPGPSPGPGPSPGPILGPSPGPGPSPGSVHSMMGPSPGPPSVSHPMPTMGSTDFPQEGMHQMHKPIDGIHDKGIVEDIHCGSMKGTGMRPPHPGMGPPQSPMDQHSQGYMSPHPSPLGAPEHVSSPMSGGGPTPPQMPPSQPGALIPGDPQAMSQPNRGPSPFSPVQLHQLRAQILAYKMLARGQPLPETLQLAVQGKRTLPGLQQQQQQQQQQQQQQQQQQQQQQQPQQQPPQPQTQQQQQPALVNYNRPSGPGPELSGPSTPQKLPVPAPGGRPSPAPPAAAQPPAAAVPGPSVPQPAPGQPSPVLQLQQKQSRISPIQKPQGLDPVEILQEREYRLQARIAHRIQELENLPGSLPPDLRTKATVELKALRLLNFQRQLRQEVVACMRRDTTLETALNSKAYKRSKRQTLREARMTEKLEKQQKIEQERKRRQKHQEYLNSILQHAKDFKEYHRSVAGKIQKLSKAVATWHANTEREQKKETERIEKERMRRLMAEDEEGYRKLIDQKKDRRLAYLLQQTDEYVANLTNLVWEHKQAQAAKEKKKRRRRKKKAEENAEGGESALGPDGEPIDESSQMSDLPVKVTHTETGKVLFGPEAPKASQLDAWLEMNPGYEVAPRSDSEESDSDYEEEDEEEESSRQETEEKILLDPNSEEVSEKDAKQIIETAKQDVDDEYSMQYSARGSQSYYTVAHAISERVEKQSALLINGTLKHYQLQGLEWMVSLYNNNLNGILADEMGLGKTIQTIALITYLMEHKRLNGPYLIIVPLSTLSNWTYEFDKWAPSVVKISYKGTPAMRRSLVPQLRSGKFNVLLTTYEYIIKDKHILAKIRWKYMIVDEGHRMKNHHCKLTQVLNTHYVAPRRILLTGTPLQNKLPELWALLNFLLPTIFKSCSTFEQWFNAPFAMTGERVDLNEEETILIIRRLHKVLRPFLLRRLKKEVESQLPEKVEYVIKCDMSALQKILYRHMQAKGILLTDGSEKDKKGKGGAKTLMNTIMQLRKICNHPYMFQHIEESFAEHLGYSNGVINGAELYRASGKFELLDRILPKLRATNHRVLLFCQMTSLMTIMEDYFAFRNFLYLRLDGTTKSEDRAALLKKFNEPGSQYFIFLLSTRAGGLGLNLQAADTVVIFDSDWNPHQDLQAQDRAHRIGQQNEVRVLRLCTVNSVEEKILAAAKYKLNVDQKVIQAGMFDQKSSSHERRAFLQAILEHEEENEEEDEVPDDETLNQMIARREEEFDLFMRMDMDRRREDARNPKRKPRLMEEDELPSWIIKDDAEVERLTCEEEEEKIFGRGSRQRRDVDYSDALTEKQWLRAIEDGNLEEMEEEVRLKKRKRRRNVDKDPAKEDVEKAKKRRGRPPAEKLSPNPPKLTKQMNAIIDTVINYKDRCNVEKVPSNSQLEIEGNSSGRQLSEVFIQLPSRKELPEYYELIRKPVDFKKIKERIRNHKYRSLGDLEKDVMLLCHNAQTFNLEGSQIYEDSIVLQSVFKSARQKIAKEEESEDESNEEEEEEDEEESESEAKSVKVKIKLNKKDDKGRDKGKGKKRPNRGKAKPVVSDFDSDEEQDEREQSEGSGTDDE
assay.text: HiBiT-BRM cell-based degradation assay (Nano-Glo HiBiT Lytic Detection, 24 h)
measurement.parameters: stable HeLa cell line expressing HiBiT-BRM, read-out: BRM HiBit Degradation IC50

{"molecule": "Cc1ncsc1-c1ccc([C@H](C)NC(=O)[C@@H]2C[C@@H](O)CN2C(=O)[C@@H](c2cc([C@H]3CC[C@@H](c4cnc(N5CCC(c6sc7nnc(-c8ccccc8O)cc7c6C)CC5)nc4)CC3)no2)C(C)C)cc1 (single isomer, unassigned)", "DC50": "> 10 nM"}
{"molecule": "Cc1ncsc1-c1ccc([C@H](C)NC(=O)[C@@H]2C[C@@H](O)CN2C(=O)[C@@H](c2cc(N3CC4(CCC(c5cc6cc(-c7ccccc7O)nnc6s5)CC4)C3)no2)C(C)C)cc1", "DC50": "< 10 nM"}
{"molecule": "Cc1ncsc1-c1ccc([C@H](C)NC(=O)[C@@H]2C[C@@H](O)CN2C(=O)[C@@H](c2cc(-c3ccc(N4CC(c5cc6cc(-c7ccccc7O)nnc6s5)C4)nn3)no2)C(C)C)cc1", "DC50": "> 10 nM"}
{"molecule": "Cc1ncsc1-c1ccc([C@H](C)NC(=O)[C@@H]2C[C@@H](O)CN2C(=O)[C@@H](c2cc(-c3cnc(N4C[C@H]5C[C@@H](C4)[C@@H]5c4cc5cc(-c6ccccc6O)nnc5s4)nc3)no2)C(C)C)cc1", "DC50": "< 10 nM"}

====

measured.on: HiBit-BRM fusion protein (Homo sapiens)
Construct: expressed in transfected cells
assay.text: HiBiT-BRM cell-based degradation assay (Nano-Glo HiBiT Lytic Detection, 24 h)
measurement.parameters: stable HeLa cell line expressing HiBiT-BRM, read-out: BRM HiBit Degradation IC50
Listed here: items and their measured DC50.

{"smiles.structure": "Cc1ncsc1-c1ccc([C@H](C)NC(=O)[C@@H]2C[C@@H](O)CN2C(=O)[C@@H](c2cc(N3CC4(C3)CN(c3cc5cc(-c6ccccc6O)nnc5s3)C4)no2)C(C)C)cc1", "DC50": "< 10 nM"}
{"smiles.structure": "Cc1ncsc1-c1ccc([C@H](C)NC(=O)[C@@H]2C[C@@H](O)CN2C(=O)[C@@H](c2cc(N3CCC(c4sc5nnc(-c6ccccc6O)cc5c4C)CC3)no2)C(C)C)cc1", "DC50": "> 10 nM"}
{"smiles.structure": "Cc1ncsc1-c1ccc([C@H](C)NC(=O)[C@@H]2C[C@@H](O)CN2C(=O)[C@@H](c2cc(-c3cnc(N4CC[C@@H](c5sc6nnc(-c7ccccc7O)cc6c5C)C4)nc3)no2)C(C)C)cc1", "DC50": "> 10 nM"}
{"smiles.structure": "Cc1ncsc1-c1ccc([C@H](C)NC(=O)[C@@H]2C[C@@H](O)CN2C(=O)[C@@H](c2cc(-c3ccc(N4CCC(c5sc6nnc(-c7ccccc7O)cc6c5C)CC4)cc3F)no2)C(C)C)cc1", "DC50": "< 10 nM"}
{"smiles.structure": "Cc1ncsc1-c1ccc([C@H](C)NC(=O)[C@@H]2C[C@@H](O)CN2C(=O)[C@@H](c2cc(N3CC4(C3)CN(c3sc5nnc(-c6ccccc6O)cc5c3C3CC3)C4)no2)C(C)C)cc1", "DC50": "< 10 nM"}

====

measured.on: HiBit-BRG1 fusion protein (Homo sapiens, UniProt P51532)
Construct: expressed in transfected cells
assay.text: HiBiT-BRG1 cell-based degradation assay (Nano-Glo HiBiT Lytic Detection, 24 h)
measurement.parameters: stable HeLa cell line expressing HiBit-BRG1 and LgBit, read-out: BRG1 HiBit Degradation Maximum (%)
measured.endpoint: Dmax

{"compound": "Cc1ncsc1-c1ccc([C@H](C)NC(=O)[C@@H]2C[C@@H](O)CN2C(=O)[C@@H](c2cc(-c3cnc(N4CC[C@@H](c5sc6nnc(-c7ccccc7O)cc6c5C5CC5)C4)nc3)no2)C(C)C)cc1 [Compound 75]", "measured.endpoint": "Dmax", "test.result": "< 50%"}
{"compound": "Cc1ncsc1-c1ccc([C@H](C)NC(=O)[C@@H]2C[C@@H](O)CN2C(=O)[C@@H](c2cc(-c3ccnc(N4CC[C@H](c5sc6nnc(-c7ccccc7O)cc6c5C)C4)n3)no2)C(C)C)cc1 [Compound 8]", "measured.endpoint": "Dmax", "test.result": "< 50%"}
{"compound": "Cc1ncsc1-c1ccc([C@H](C)NC(=O)[C@@H]2C[C@@H](O)CN2C(=O)[C@@H](c2cc(-c3ccnc(N4CC[C@H](c5cc6nnc(-c7ccccc7O)cc6s5)C4)n3)no2)C(C)C)cc1 [Compound 86]", "measured.endpoint": "Dmax", "test.result": "< 50%"}
{"compound": "Cc1ncsc1-c1ccc([C@H](C)NC(=O)[C@@H]2C[C@@H](O)CN2C(=O)[C@@H](c2cc(N3CC4(CC(c5sc6nnc(-c7ccccc7O)cc6c5C)C4)C3)no2)C(C)C)cc1 [Compound 23]", "measured.endpoint": "Dmax", "test.result": "< 50%"}
{"compound": "Cc1ncsc1-c1ccc([C@H](C)NC(=O)[C@@H]2C[C@@H](O)CN2C(=O)C(c2cc(N3CC4(C3)CN(c3cc5nnc(-c6ccccc6O)cc5s3)C4)no2)C(C)C)cc1 (stereo partly shown) [Compound 67]", "measured.endpoint": "Dmax", "test.result": "< 50%"}
{"compound": "Cc1ncsc1-c1ccc([C@H](C)NC(=O)[C@@H]2C[C@@H](O)CN2C(=O)[C@@H](c2cc(N3CC4(CC(c5sc6nnc(-c7ccccc7O)cc6c5C5CC5)C4)C3)no2)C(C)C)cc1 [Compound 87]", "measured.endpoint": "Dmax", "test.result": "< 50%"}
{"compound": "Cc1ncsc1-c1ccc([C@H](C)NC(=O)[C@@H]2C[C@@H](O)CN2C(=O)[C@@H](c2cc(-c3cnc(N4CC[C@H](c5sc6nnc(-c7ccccc7O)cc6c5C)C[C@@H]4C)nc3)no2)C(C)C)cc1 [Compound 27]", "measured.endpoint": "Dmax", "test.result": "< 50%"}
{"compound": "Cc1ncsc1-c1ccc([C@H](C)NC(=O)[C@@H]2C[C@@H](O)CN2C(=O)[C@@H](c2cc(N3CC(c4sc5nnc(-c6ccccc6O)cc5c4C)C3)no2)C(C)C)cc1 [Compound 19]", "measured.endpoint": "Dmax", "test.result": "< 50%"}
{"compound": "Cc1ncsc1-c1ccc([C@H](C)NC(=O)[C@@H]2C[C@@H](O)CN2C(=O)[C@@H](c2cc(-c3cnc(N4CCC(c5cc6nnc(-c7ccccc7O)cc6s5)CC4)nc3)no2)C(C)C)cc1 [Compound 55]", "measured.endpoint": "Dmax", "test.result": "< 50%"}
{"compound": "Cc1ncsc1-c1ccc([C@H](C)NC(=O)[C@@H]2C[C@@H](O)CN2C(=O)[C@@H](c2cc(C3CCN(c4ncc(-c5sc6nnc(-c7ccccc7O)cc6c5C)cn4)CC3)no2)C(C)C)cc1 [Compound 32]", "measured.endpoint": "Dmax", "test.result": "< 50%"}
